B1: INTS3 (parent)
chain: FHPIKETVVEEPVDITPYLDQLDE

# Variants of: B1
# measurementDescription: protein stability index of a GFP-peptide fusion (GPS, HEK-293T) (PSI 1-6); higher = more stable;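 also: lentivirally expressed fusions sorted by FACS into six bins by GFP to DsRed ratio, PSI derived from sequencing read proportions per bin multiplied by bin number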
# experimentalConditions: c terminus: a fixed tail appended
Category key, based on recorded protein stability index: 0: < 3; 1: ≥ 3 and < 4; 2: ≥ 4

1) H2S    2
2) T7L    0
3) P17D    1
4) E6L    0
5) I15W    0
6) Y18C    1
7) I15E    2
8) F1L    2
9) D23I    0
